Tested on: ragweed
TEST_PROTOCOL: Test C preemergence
Type: in vivo, Ambrosia artemisiifolia
TEST_CONDITIONS: Preemergence, 500 g ai/ha; visual rating after 10 days, 0 to 100 scale (0 no effect, 100 complete control)
OBSERVATION_TYPE: Plant response rating, Ragweed

compound="Cc1ccc(-n2cnc(C3CCC3)n2)cc1C(=O)N1CC(C(F)(F)F)Oc2c(Cl)cccc21 (single isomer, unassigned) [Compound 219]" experimental_result=70
compound="COc1ccc(-n2cncn2)cc1C(=O)N1C[C@H](C)Oc2c(Cl)cccc21 [Compound 241]" experimental_result=10
compound="COc1c(F)cc(-n2cnc(C(C)C)n2)cc1C(=O)N1C[C@H](C)Oc2c(Cl)cccc21 [Compound 177]" experimental_result=90
compound="COc1cc(C(=O)N2C[C@H](C)Oc3c(Cl)cccc32)cc(-n2cnc(C(C)C)n2)c1 [Compound 212]" experimental_result=50
